Data provenance: patent US6355673B1

This listing pairs molecules with measured IC50.
- ASSAYED_TARGET: stromelysin (MMP-3) (Homo sapiens, UniProt P08254)
- Construct: enzymatic activity of the catalytic domains of human stromelysin and of neutrophil collagenase
- Sequence (P08254 100-272 limits assumed): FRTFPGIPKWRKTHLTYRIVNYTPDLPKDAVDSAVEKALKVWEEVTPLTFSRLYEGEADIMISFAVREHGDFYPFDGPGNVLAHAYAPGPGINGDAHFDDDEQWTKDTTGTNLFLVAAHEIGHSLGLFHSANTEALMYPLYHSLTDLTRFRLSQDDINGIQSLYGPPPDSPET
- ASSAY_PROTOCOL: Enzyme inhibition of the catalytic domain of human stromelysin (fluorogenic substrate)
- TEST_PARAMETERS: 15 min preincubation, pH=6.5, fluorescence 328 nm (ex)/393 nm (em)

{"columns": ["MOLECULE", "IC50 [nM]"],
 "data": [
  ["N#Cc1ccccc1C(=O)NCCC[C@H](NS(=O)(=O)c1ccc(-c2ccc(Cl)cc2)cc1)C(=O)O", 30],
  ["O=C(NCCCC[C@H](NS(=O)(=O)c1ccc(-c2ccc(Cl)cc2)cc1)C(=O)O)OCc1ccccc1", 20],
  ["O=C(NCCC[C@H](NS(=O)(=O)c1ccc(-c2ccc(Cl)cc2)cc1)C(=O)O)c1ccc(Cl)cc1Cl", 5],
  ["Cc1oncc1C(=O)NCCCC[C@@H](NS(=O)(=O)CCc1ccc(-c2ccccc2)cc1)C(=O)O", 40],
  ["O=C(NCCC[C@H](NS(=O)(=O)c1ccc(-c2ccc(Cl)cc2)cc1)C(=O)O)c1ccccn1", 6],
  ["CC(C)COC(=O)NCCC[C@H](NS(=O)(=O)c1ccc(-c2ccc(Cl)cc2)cc1)C(=O)O", 10],
  ["O=C(O)C(CCN1C(=O)c2ccccc2C1=O)NS(=O)(=O)c1ccc(-c2ccc(Cl)cc2)cc1 (racemic)", 6],
  ["O=C(/C=C/C1C=NC=N1)NCCC[C@H](NS(=O)(=O)c1ccc(-c2ccc(Cl)cc2)cc1)C(=O)O (stereo partly shown)", 60],
  ["CN(C)c1ccc(-c2ccc(S(=O)(=O)N[C@@H](CCCNC(=O)OC(C)(C)C)C(=O)O)cc2)cc1", 5],
  ["O=C(O)[C@@H](CCCN1C(=O)c2ccccc2C1=O)NS(=O)(=O)c1ccc(-c2ccc(Cl)cc2)cc1", 5],
  ["O=C(NCCC[C@H](NS(=O)(=O)c1ccc(-c2ccc(Cl)cc2)cc1)C(=O)O)c1cc(Cl)ccc1O", 50],
  ["COc1cc(Cl)cc(C(=O)NCCC[C@H](NS(=O)(=O)c2ccc(-c3ccc(Cl)cc3)cc2)C(=O)O)c1", 60],
  ["CC(=O)NCSC[C@@H](NS(=O)(=O)c1ccc(-c2ccc(Cl)cc2)cc1)C(=O)O", 70],
  ["O=C(NCCC[C@H](NS(=O)(=O)c1ccc(-c2ccc(Cl)cc2)cc1)C(=O)O)C1CC1", 5],
  ["O=C(O)[C@H](CCCN1C(=O)c2ccccc2C1=O)NS(=O)(=O)c1ccc(-c2ccc(Cl)cc2)cc1", 6],
  ["O=C(NCCC[C@H](NS(=O)(=O)c1ccc(-c2ccccc2)cc1)C(=O)O)C1CC1", 40],
  ["CC(=O)Oc1ccccc1C(=O)NCCC[C@H](NS(=O)(=O)c1ccc(-c2ccc(Cl)cc2)cc1)C(=O)O", 4],
  ["O=C(NCCC[C@H](NS(=O)(=O)c1ccc(-c2ccc(Cl)cc2)cc1)C(=O)O)c1ccc(C(F)(F)F)cc1F", 20],
  ["Cc1oncc1C(=O)NCCCC[C@@H](NS(=O)(=O)c1ccc(-c2ccc(Cl)cc2)cc1)C(=O)O", 90],
  ["O=C(NCCC[C@H](NS(=O)(=O)c1ccc(-c2ccc(Cl)cc2)cc1)C(=O)O)NS(=O)(=O)c1ccccc1 (single isomer, unassigned) [Example 61]", 6],
  ["O=C(NCCC[C@H](NS(=O)(=O)c1ccc(-c2ccc(Cl)cc2)cc1)C(=O)O)OCc1ccccc1", 20],
  ["O=C(CC(C(=O)O)c1ccccc1)NCCC[C@@H](NS(=O)(=O)c1ccc(-c2ccc(Cl)cc2)cc1)C(=O)O (single isomer, unassigned) [Example 39]", 20],
  ["CC(C)(C)CC(=O)NCCC[C@@H](NS(=O)(=O)c1ccc(-c2ccc(Cl)cc2)cc1)C(=O)O", 10],
  ["O=C(NCCC[C@H](NS(=O)(=O)c1ccc(-c2ccc(Cl)cc2)cc1)C(=O)O)c1cccs1", 3],
  ["Cc1cc(C(=O)NCCC[C@H](NS(=O)(=O)c2ccc(-c3ccc(Cl)cc3)cc2)C(=O)O)ccc1[N+](=O)[O-]", 30],
  ["Cc1ccsc1C(=O)NCCC[C@H](NS(=O)(=O)c1ccc(-c2ccc(Cl)cc2)cc1)C(=O)O", 4],
  ["O=C(NCCC[C@H](NS(=O)(=O)c1ccc(-c2ccc(Cl)cc2)cc1)C(=O)O)c1cc(F)cc(F)c1", 20],
  ["CC(=O)Oc1ccccc1C(=O)NCCC[C@H](NS(=O)(=O)c1ccc(-c2ccccc2)cc1)C(=O)O", 30]
]}

---

- ASSAYED_TARGET: stromelysin (MMP-3) (Homo sapiens, UniProt P08254)
- Construct: enzymatic activity of the catalytic domains of human stromelysin and of neutrophil collagenase
- ASSAY_PROTOCOL: Enzyme inhibition of the catalytic domain of human stromelysin (fluorogenic substrate)
- TEST_PARAMETERS: 15 min preincubation, pH=6.5, fluorescence 328 nm (ex)/393 nm (em)
pIC50: −log10 of the molar value.
If the reported pIC50 equals or exceeds 8, assign 1.0. If not, assign 0.0.

{"columns": ["SUBSTANCE_SMILES", "CATEGORY_LABEL"],
 "data": [
  ["O=C(O)[C@H](CCCNC(=O)N1CCOCC1)NS(=O)(=O)c1ccc(-c2ccc(Cl)cc2)cc1", 1.0],
  ["CC(C)(C)CC(=O)NCCC[C@H](NS(=O)(=O)c1ccc(-c2ccc(Cl)cc2)cc1)C(=O)O", 0.0],
  ["O=C(NCCC[C@H](NS(=O)(=O)c1ccc(-c2ccc(Cl)cc2)cc1)C(=O)O)c1ccc2ccccc2c1", 0.0],
  ["CC(C)(C)C(=O)NCCC[C@H](NS(=O)(=O)c1ccc(-c2ccc(Cl)cc2)cc1)C(=O)O", 0.0],
  ["N/C(=N\\[N+](=O)[O-])NCCC[C@H](NS(=O)(=O)c1ccc(-c2ccc(Cl)cc2)cc1)C(=O)O", 0.0],
  ["CN(C)c1ccc(C(=O)NCCC[C@@H](NS(=O)(=O)c2ccc(-c3ccc(Cl)cc3)cc2)C(=O)O)cc1", 0.0]
]}

---

- ASSAYED_TARGET: stromelysin (MMP-3) (Homo sapiens, UniProt P08254)
- Construct: enzymatic activity of the catalytic domains of human stromelysin and of neutrophil collagenase; made in house
- ASSAY_PROTOCOL: Enzyme inhibition of the catalytic domain of human stromelysin (fluorogenic substrate)
- Type: biochemical
- TEST_PARAMETERS: 15 min preincubation, pH=6.5, fluorescence 328 nm (ex)/393 nm (em)
pIC50: −log10 of the molar value.
If the reported pIC50 equals or exceeds 8, assign true (1). If not, assign false (0).

{"columns": ["COMPOUND", "CATEGORY_LABEL"],
 "data": [
  ["O=C(Cc1ccc(Cl)cc1)NCCC[C@H](NS(=O)(=O)c1ccc(-c2ccc(Cl)cc2)cc1)C(=O)O", "false (0)"],
  ["NC(=O)NCCC[C@@H](NS(=O)(=O)c1ccc(-c2ccc(Cl)cc2)cc1)C(=O)O [Example 1, (R)-(4-Chlorobiphenylsulfonyl)citrulline]", "false (0)"],
  ["CC(=O)NCCCC[C@@H](NS(=O)(=O)CCc1ccc(-c2ccccc2)cc1)C(=O)O", "false (0)"],
  ["O=C(/C=C/c1ccccc1)NCCC[C@H](NS(=O)(=O)c1ccc(-c2ccc(Cl)cc2)cc1)C(=O)O", "false (0)"],
  ["O=C(O)[C@H](CCCN1Cc2ccccc2C1=O)NS(=O)(=O)c1ccc(-c2ccc(Cl)cc2)cc1", "true (1)"],
  ["C[C@H](NC(=O)OC(C)(C)C)C(=O)NCCC[C@H](NS(=O)(=O)c1ccc(-c2ccc(Cl)cc2)cc1)C(=O)O", "false (0)"],
  ["O=C(O)[C@H](CCCN(Cc1ccccc1)C(=O)C1CC1)NS(=O)(=O)c1ccc(-c2ccc(Cl)cc2)cc1", "true (1)"],
  ["O=C(O)C1CC1C(=O)NCCC[C@H](NS(=O)(=O)c1ccc(-c2ccc(Cl)cc2)cc1)C(=O)O (some centres unmarked)", "false (0)"],
  ["O=C(NCCC[C@H](NS(=O)(=O)c1ccc(-c2ccc(Cl)cc2)cc1)C(=O)O)c1ccc2ncccc2c1", "false (0)"]
]}

---

- ASSAYED_TARGET: neutrophil collagenase (MMP-8) (Homo sapiens)
- Construct: enzymatic activity of the catalytic domains of human stromelysin and of neutrophil collagenase
- Sequence (P22894 100-262 limits assumed): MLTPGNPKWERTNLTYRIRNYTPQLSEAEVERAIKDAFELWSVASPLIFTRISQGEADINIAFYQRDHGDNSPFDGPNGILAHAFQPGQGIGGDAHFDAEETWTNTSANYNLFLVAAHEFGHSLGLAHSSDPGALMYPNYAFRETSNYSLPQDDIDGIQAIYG
- ASSAY_PROTOCOL: Enzyme inhibition of the catalytic domain of neutrophil collagenase (fluorogenic substrate)
- TEST_PARAMETERS: 15 min preincubation, pH=6.5, fluorescence 328 nm (ex)/393 nm (em)
pIC50: −log10 of the molar value.
This listing pairs compounds with measured pIC50.

{"columns": ["COMPOUND", "pIC50"],
 "data": [
  ["O=C(O)[C@H](CCCNC(=O)N1CCOCC1)NS(=O)(=O)c1ccc(-c2ccc(Cl)cc2)cc1 [Example 128]", 8.70],
  ["COc1ccccc1C(=O)NCCC[C@H](NS(=O)(=O)c1ccc(-c2ccc(Cl)cc2)cc1)C(=O)O [Example 151]", 8.00],
  ["O=C(O)c1ccccc1S(=O)(=O)NCCC[C@H](NS(=O)(=O)c1ccc(-c2ccc(Cl)cc2)cc1)C(=O)O [Example 76]", 7.40],
  ["O=C(NCCC[C@H](NS(=O)(=O)c1ccc(-c2ccc(Cl)cc2)cc1)C(=O)O)C1CCC1 [Example 66]", 8.70],
  ["O=C(O)[C@@H](CCCN1C(=O)c2ccccc2C1=O)NS(=O)(=O)c1ccc(-c2ccc(Cl)cc2)cc1 [Example 6]", 8.70],
  ["O=C(O)[C@H](CCCN(C(=O)C1CC1)C(=O)C1CC1)NS(=O)(=O)c1ccc(-c2ccc(Cl)cc2)cc1 [Example 63]", 8.70],
  ["O=C(O)[C@H](CCCn1sc2ccccc2c1=O)NS(=O)(=O)c1ccc(-c2ccc(Cl)cc2)cc1 [Example 114]", 8.70]
]}
